# system: ArnA_DH_N492A (Escherichia coli, UniProt P77398, N492A)
# protocol.text: Thermal stability shift assay for ligand binding to N492A mutant
reported.metric: pKd
API: returns pKd as number; meaning -log10 of concentration in mol/L.

Summary for this compound, O=C(O)[C@H]1O[C@H](OP(=O)(O)OP(=O)(O)OC[C@H]2O[C@@H](n3ccc(=O)[nH]c3=O)[C@H](O)[C@@H]2O)[C@H](O)[C@@H](O)[C@@H]1O : pKd is 4.44
